biological target: PI3Kdelta (Homo sapiens, UniProt O00329); construct: Millipore 14-604; experiment: HTRF PI3K biochemical assay, delta isoform; details: 0.3 nM enzyme, 100 uM ATP, 5 uM PIP2, form screened (Neutral or TFA salt) given per compound
Sequence (O00329 whole entry, canonical isoform): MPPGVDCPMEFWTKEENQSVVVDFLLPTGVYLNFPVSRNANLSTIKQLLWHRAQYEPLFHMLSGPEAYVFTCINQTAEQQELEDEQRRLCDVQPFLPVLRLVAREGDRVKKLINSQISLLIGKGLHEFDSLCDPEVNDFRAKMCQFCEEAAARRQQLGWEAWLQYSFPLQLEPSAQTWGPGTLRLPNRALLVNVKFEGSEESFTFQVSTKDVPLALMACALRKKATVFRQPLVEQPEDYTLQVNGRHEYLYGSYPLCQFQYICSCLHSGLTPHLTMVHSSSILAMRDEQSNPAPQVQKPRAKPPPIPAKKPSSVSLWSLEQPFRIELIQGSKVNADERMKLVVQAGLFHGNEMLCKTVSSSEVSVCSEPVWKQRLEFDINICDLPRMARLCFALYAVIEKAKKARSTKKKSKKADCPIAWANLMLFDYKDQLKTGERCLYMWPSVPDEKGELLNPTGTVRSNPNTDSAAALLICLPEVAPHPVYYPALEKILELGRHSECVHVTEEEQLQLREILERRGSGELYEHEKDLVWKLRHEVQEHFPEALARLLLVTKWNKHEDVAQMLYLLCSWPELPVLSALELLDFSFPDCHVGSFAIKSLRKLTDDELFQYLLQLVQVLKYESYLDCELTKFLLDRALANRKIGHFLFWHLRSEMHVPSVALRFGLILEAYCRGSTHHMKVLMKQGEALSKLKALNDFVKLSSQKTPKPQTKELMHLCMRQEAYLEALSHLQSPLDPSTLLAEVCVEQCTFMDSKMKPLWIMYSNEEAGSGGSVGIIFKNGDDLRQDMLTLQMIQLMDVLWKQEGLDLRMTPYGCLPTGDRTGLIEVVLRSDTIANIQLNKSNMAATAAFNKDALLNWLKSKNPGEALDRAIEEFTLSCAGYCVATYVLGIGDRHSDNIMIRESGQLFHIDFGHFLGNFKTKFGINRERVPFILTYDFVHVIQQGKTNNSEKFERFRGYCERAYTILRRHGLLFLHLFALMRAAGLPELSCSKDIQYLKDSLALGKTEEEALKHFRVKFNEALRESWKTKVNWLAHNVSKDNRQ
Sequence (P27986 whole entry partner, canonical isoform): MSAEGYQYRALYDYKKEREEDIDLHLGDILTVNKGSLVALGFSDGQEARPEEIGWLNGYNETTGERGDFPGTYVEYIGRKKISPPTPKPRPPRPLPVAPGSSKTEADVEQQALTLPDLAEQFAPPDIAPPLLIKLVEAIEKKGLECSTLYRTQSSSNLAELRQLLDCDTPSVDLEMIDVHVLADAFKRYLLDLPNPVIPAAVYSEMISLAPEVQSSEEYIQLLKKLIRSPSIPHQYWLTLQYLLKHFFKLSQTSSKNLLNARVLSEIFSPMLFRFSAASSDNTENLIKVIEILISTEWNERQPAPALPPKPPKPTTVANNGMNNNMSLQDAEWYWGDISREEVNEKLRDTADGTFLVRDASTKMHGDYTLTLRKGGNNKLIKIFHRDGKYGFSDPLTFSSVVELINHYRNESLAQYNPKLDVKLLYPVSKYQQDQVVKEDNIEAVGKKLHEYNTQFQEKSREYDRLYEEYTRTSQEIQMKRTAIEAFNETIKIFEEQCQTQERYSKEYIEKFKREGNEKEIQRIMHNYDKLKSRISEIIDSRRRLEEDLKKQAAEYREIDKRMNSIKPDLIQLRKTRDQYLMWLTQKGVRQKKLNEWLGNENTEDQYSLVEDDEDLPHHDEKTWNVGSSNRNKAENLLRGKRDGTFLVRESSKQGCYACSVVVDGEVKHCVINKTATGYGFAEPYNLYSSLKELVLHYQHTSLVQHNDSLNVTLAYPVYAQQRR
property.label: IC50 (nM)
One number for each entry, in nM.

Consider the reported IC50 for these compounds:
CCn1c(-c2cnc(C)nc2)nc2c(NC3CCc4nnc(C5CC5)n4C3)ncnc21 (single isomer, unassigned) [Compound 1-1]
4.2
CCn1c(-c2cnc(C)nc2)nc2c(NC3CCc4c(c(C(C)C)nn4C)C3)ncnc21 (single isomer, unassigned) [Compound 2-25]
14
CCn1c(-c2cnc(C)nc2)nc2c(NC3CCc4cnc(C5CC5)n4C3)ncnc21 (single isomer, unassigned) [Compound 3-1]
11

Now let's try a different one.
Q) Item under review: CCOC(=O)n1nc(C(C)C)c2c1CCC(Nc1ncnc3c1nc(-c1cnc(C)nc1)n3CC)C2 (racemic) [Compound 2-17] . Reported IC50?
A) 2.3
